# Lookup of reported normalized RNA/DNA level without ligand (log10) keyed by entry
B1: library; a variant is named by its letters at N, in order (parent)
chain: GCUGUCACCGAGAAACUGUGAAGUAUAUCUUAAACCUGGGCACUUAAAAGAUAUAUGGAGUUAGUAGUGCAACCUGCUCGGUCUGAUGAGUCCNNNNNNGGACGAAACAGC

Variants of: B1
ASSAY_TEXT: normalized RNA/DNA level without ligand (relative to sTRSVctl = 100) (log10 (% of sTRSVctl)); HEK293T; ligand: cyclic di-GMP (c-di-GMP-II aptamer); higher = less ribozyme self-cleavage, higher mRNA level
ASSAY_SETUP: reporter: mCherry (pCS4076), ligand present: no
ENDPOINT_LABEL: normalized RNA/DNA level without ligand (log10)

POLYMER_SEQUENCE	OBSERVED_RESULT
GCUGUCACCGAGAAACUGUGAAGUAUAUCUUAAACCUGGGCACUUAAAAGAUAUAUGGAGUUAGUAGUGCAACCUGCUCGGUCUGAUGAGUCCUUAUCUGGACGAAACAGC [UUAUCU]	1.7
GCUGUCACCGAGAAACUGUGAAGUAUAUCUUAAACCUGGGCACUUAAAAGAUAUAUGGAGUUAGUAGUGCAACCUGCUCGGUCUGAUGAGUCCAGCCAUGGACGAAACAGC [AGCCAU]	1.72
GCUGUCACCGAGAAACUGUGAAGUAUAUCUUAAACCUGGGCACUUAAAAGAUAUAUGGAGUUAGUAGUGCAACCUGCUCGGUCUGAUGAGUCCAGCGAGGGACGAAACAGC [AGCGAG]	1.57
GCUGUCACCGAGAAACUGUGAAGUAUAUCUUAAACCUGGGCACUUAAAAGAUAUAUGGAGUUAGUAGUGCAACCUGCUCGGUCUGAUGAGUCCGUGCGAGGACGAAACAGC [GUGCGA]	1.6
GCUGUCACCGAGAAACUGUGAAGUAUAUCUUAAACCUGGGCACUUAAAAGAUAUAUGGAGUUAGUAGUGCAACCUGCUCGGUCUGAUGAGUCCCCAAGUGGACGAAACAGC [CCAAGU]	1.66
GCUGUCACCGAGAAACUGUGAAGUAUAUCUUAAACCUGGGCACUUAAAAGAUAUAUGGAGUUAGUAGUGCAACCUGCUCGGUCUGAUGAGUCCACCAUGGGACGAAACAGC [ACCAUG]	1.61
GCUGUCACCGAGAAACUGUGAAGUAUAUCUUAAACCUGGGCACUUAAAAGAUAUAUGGAGUUAGUAGUGCAACCUGCUCGGUCUGAUGAGUCCCCUCAAGGACGAAACAGC [CCUCAA]	1.46
GCUGUCACCGAGAAACUGUGAAGUAUAUCUUAAACCUGGGCACUUAAAAGAUAUAUGGAGUUAGUAGUGCAACCUGCUCGGUCUGAUGAGUCCCGUGGAGGACGAAACAGC [CGUGGA]	1.41
GCUGUCACCGAGAAACUGUGAAGUAUAUCUUAAACCUGGGCACUUAAAAGAUAUAUGGAGUUAGUAGUGCAACCUGCUCGGUCUGAUGAGUCCACAGCGGGACGAAACAGC [ACAGCG]	1.75
GCUGUCACCGAGAAACUGUGAAGUAUAUCUUAAACCUGGGCACUUAAAAGAUAUAUGGAGUUAGUAGUGCAACCUGCUCGGUCUGAUGAGUCCACCUAUGGACGAAACAGC [ACCUAU]	1.59
GCUGUCACCGAGAAACUGUGAAGUAUAUCUUAAACCUGGGCACUUAAAAGAUAUAUGGAGUUAGUAGUGCAACCUGCUCGGUCUGAUGAGUCCCGUAAUGGACGAAACAGC [CGUAAU]	1.36
GCUGUCACCGAGAAACUGUGAAGUAUAUCUUAAACCUGGGCACUUAAAAGAUAUAUGGAGUUAGUAGUGCAACCUGCUCGGUCUGAUGAGUCCUCGUUGGGACGAAACAGC [UCGUUG]	1.61
GCUGUCACCGAGAAACUGUGAAGUAUAUCUUAAACCUGGGCACUUAAAAGAUAUAUGGAGUUAGUAGUGCAACCUGCUCGGUCUGAUGAGUCCCUCUGUGGACGAAACAGC [CUCUGU]	1.78
GCUGUCACCGAGAAACUGUGAAGUAUAUCUUAAACCUGGGCACUUAAAAGAUAUAUGGAGUUAGUAGUGCAACCUGCUCGGUCUGAUGAGUCCAACGUCGGACGAAACAGC [AACGUC]	1.66
GCUGUCACCGAGAAACUGUGAAGUAUAUCUUAAACCUGGGCACUUAAAAGAUAUAUGGAGUUAGUAGUGCAACCUGCUCGGUCUGAUGAGUCCUAUUUGGGACGAAACAGC [UAUUUG]	1.73
GCUGUCACCGAGAAACUGUGAAGUAUAUCUUAAACCUGGGCACUUAAAAGAUAUAUGGAGUUAGUAGUGCAACCUGCUCGGUCUGAUGAGUCCAUAGGUGGACGAAACAGC [AUAGGU]	1.51
GCUGUCACCGAGAAACUGUGAAGUAUAUCUUAAACCUGGGCACUUAAAAGAUAUAUGGAGUUAGUAGUGCAACCUGCUCGGUCUGAUGAGUCCCCGUAAGGACGAAACAGC [CCGUAA]	1.35
GCUGUCACCGAGAAACUGUGAAGUAUAUCUUAAACCUGGGCACUUAAAAGAUAUAUGGAGUUAGUAGUGCAACCUGCUCGGUCUGAUGAGUCCGGCGCGGGACGAAACAGC [GGCGCG]	1.72
GCUGUCACCGAGAAACUGUGAAGUAUAUCUUAAACCUGGGCACUUAAAAGAUAUAUGGAGUUAGUAGUGCAACCUGCUCGGUCUGAUGAGUCCUGCACAGGACGAAACAGC [UGCACA]	1.76
GCUGUCACCGAGAAACUGUGAAGUAUAUCUUAAACCUGGGCACUUAAAAGAUAUAUGGAGUUAGUAGUGCAACCUGCUCGGUCUGAUGAGUCCAGUGCAGGACGAAACAGC [AGUGCA]	1.61
GCUGUCACCGAGAAACUGUGAAGUAUAUCUUAAACCUGGGCACUUAAAAGAUAUAUGGAGUUAGUAGUGCAACCUGCUCGGUCUGAUGAGUCCAGGUAUGGACGAAACAGC [AGGUAU]	1.57
GCUGUCACCGAGAAACUGUGAAGUAUAUCUUAAACCUGGGCACUUAAAAGAUAUAUGGAGUUAGUAGUGCAACCUGCUCGGUCUGAUGAGUCCCGCCAGGGACGAAACAGC [CGCCAG]	1.76
